Cited source for all entries: paper PMC8617076

# TARGET_DESC: T1, Trx-hHR23AFL (human, UniProt P54725 1-363)
# T1 construct: human hHR23A, full length (FL); source: E. coli Rosetta 2 (DE3) or Rosetta 2 (DE3) pLysS, purified (HisTrap, gel filtration)
# T1 sequence (looked up): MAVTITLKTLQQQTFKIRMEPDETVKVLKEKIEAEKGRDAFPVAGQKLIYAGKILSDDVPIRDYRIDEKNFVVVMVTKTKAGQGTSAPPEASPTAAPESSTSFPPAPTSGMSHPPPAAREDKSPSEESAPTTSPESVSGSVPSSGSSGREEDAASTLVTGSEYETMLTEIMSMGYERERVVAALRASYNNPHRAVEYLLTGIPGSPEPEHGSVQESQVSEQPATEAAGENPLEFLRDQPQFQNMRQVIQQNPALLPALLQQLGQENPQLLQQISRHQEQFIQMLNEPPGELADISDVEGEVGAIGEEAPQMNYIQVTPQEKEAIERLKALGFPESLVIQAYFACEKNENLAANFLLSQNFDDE
# PROTOCOL: ITC; NusA–Vpr1–79 (8.5 µM) in the cell, Trx-hHR23AFL or DCAF1 1045–1396/DDB1 (100 μM) added in aliquots; 18 °C; 20 mM sodium phosphate pH 7.4, 100 mM NaCl
# REPORTED_CONDITIONS: both partners purified
RESULT_TYPE: Kd (nM)
# output: bare number, implied unit nM

Item under review: NusA–Vpr_(1–79) (domain or fragment, HIV-1 Vpr, residues 1-79; source: E. coli Rosetta 2 (DE3) or Rosetta 2 (DE3) pLysS, purified (HisTrap, gel filtration)) MEQAPEDQGPQREPYNEWTLELLEELKSEAVRHFPRIWLHNLGQHIYETYGDTWAGVEAIIRILQQLLFIHFRIGCRHS . Reported Kd?
640
